test: Single-dose plasma pharmacokinetics of raltitrexed in cancer patients (radioimmunoassay, three-compartment model); format: in vivo, human; details: both sexes, human, in vivo, iv, 3 mg, Cmax (mean; SD)
observation type: Cmax
Record the result as number plus unit.

Note down Cmax recorded for Cc1nc2ccc(CN(C)c3ccc(C(=O)N[C@@H](CCC(=O)O)C(=O)O)s3)cc2c(=O)[nH]1 [raltitrexed]
676 ng/mL
